procedure text: log P determination (HPLC, calibration with unbranched alkan-2-ones)
Format: physicochemical
test parameters: * LC-MS determination in the acidic range at pH 2.7, mobile phases 0.1% aqueous formic acid and acetonitrile (0.1% formic acid), linear gradient 10% to 95% acetonitrile; reversed-phase C 18 HPLC
Experimental: The calibration is carried out using unbranched alkan-2-ones (having 3 to 16 carbon atoms) with known log P values (determination of the log P values by the retention times using linear interpolation between two successive alkanones). The lambda-maX values were determined in the maxima of the chromatographic signals using the UV spectra from 200 nm to 400 nm.
measured metric: log p

> print(dat)
                                   molecule  reported.value
1  C#CC1(OC(=O)c2csc(C3CCN(C(=O)C(C)(C)n4nc(C)cc4C)CC3)n2)CCCC1           3.28*
2  Cc1cc(C(F)(F)F)nn1CC(=O)N1CCC(c2nc(C(=O)Oc3cccc4cccnc34)cs2)CC1           2.88*
3  Cc1cc(C(F)(F)F)nn1CC(=O)N1CCC(c2nc(C(=O)Oc3cccc4c3CCCC4)cs2)CC1 [compound 790]           4.21*
4  Cc1cc(C(F)(F)F)nn1CC(=O)N1CCC(c2nc(C(=O)Oc3cccc(Oc4ccccc4)c3)cs2)CC1           4.18*
5  Cc1cc(C(F)(F)F)nn1CC(=O)N1CCC(c2nc(C(=O)OCc3c(F)cc(F)cc3F)cs2)CC1           3.53*

In: Tell me the measured log p of CC(C(=O)N1CCC(c2nc(C(=O)OC3CCCCC3)cs2)CC1)n1ccc(C(F)(F)F)n1 (centres unmarked) , please.
Out: 3.88*

In: Requested read-out: log p. Entry: CC(C)(C)c1cc(C(F)(F)C(F)(F)F)n(CC(=O)N2CCC(c3nc(C(=O)OCC4CCCCC4)cs3)CC2)n1
Out: 5.08*

In: Field request: log p | item: C#CC1(OC(=O)c2csc(C3CCN(C(=O)Cn4nc(C(F)(F)F)cc4C)CC3)n2)CCCCC1
Out: 3.76*

In: Would you mind telling me what log p value was observed for Cc1cc(C(F)(F)F)nn1CC(=O)N1CCC(c2nc(C(=O)OCc3ccccc3OC(F)(F)F)cs2)CC1 ?
Out: 3.95*

In: Can you look up the measured log p of Cc1cc(C(F)(F)F)nn1CC(=O)N1CCC(c2nc(C(=O)OC3CCC4(CC3)OCCO4)cs2)CC1 for me?
Out: 2.90*

In: # lookup: log p of Cc1cc(C(F)(F)F)nn1CC(=O)N1CCC(c2nc(C(=O)Oc3ccccc3-c3ccccc3)cs2)CC1
Out: 3.96*

In: Any idea what log p was measured for Cc1cc(C(F)(F)F)nn1CC(=O)N1CCC(c2nc(C(=O)OCc3ccc(C(F)(F)F)cc3)cs2)CC1 ?
Out: 3.86*

In: Fill blank: measured log p of the molecule CCc1cc(C(F)(F)F)n(CC(=O)N2CCC(c3nc(C(=O)OCC4CCCCC4)cs3)CC2)n1 is ____.
Out: 3.99*

In: Record request: log p value, item Cc1cc(C(F)F)n(CC(=O)N2CCC(c3nc(C(=O)OC4CCCCC4)cs3)CC2)n1
Out: 3.28*
